Where these numbers come from: patent US10633348B2

Tested on: OCI-Ly19
TEST NAME: CellTiter-Glo cell viability assay
Format: cell-based
ASSAY SETUP: Homo sapiens, OCI-LY19; 72 hours
Kindly state EC50 for each of the entries shown.
Just the number in µM, nothing appended.

Lab note: measured EC50 of CCN1CCN(Cc2ccc(NC(=O)c3ccc(C)c(Oc4cc(Nc5cnoc5)ncn4)c3)cc2C(F)(F)F)CC1 [(A-16)] was 0.777

Lab note: measured EC50 of CCN1CCN(Cc2ccc(NC(=O)c3ccc(C)c(Oc4cc(NC)ncn4)c3)cc2C(F)(F)F)CC1 [(A-1)] was 4.98

====

Test system: OCI-Ly19
TEST NAME: CellTiter-Glo cell viability assay
Format: cell-based
ASSAY SETUP: Homo sapiens, OCI-LY19; 72 hours
Protocol: CellTiter-Glo® Luminescent cell viability assay (Promega) was used to assess cell survival following treatment with the compounds described. Cells were seeded into 384 well plates with the EL406 Combination Washer Dispenser (BioTek Instruments, Inc.) and the compounds were injected into the cells culture media with the JANUS Automated Workstation (PerkinElmer Inc.). […] Luminescent measurement is performed using the 2104 Envision® Multilabel Reader (PerkinElmer Inc.).
pEC50: −log10 of the molar value.
EXPERIMENTAL ENDPOINT: pEC50

Record CCN1CCN(Cc2ccc(NC(=O)c3ccc(C)c(Oc4cc(NN(C)C)ncn4)c3)cc2C(F)(F)F)CC1 has OCI-Ly19 pEC50 equal to < 4.70

Record CCN1CCN(Cc2ccc(NC(=O)c3ccc(C)c(Oc4cc(NNC(C)=O)ncn4)c3)cc2C(F)(F)F)CC1 has OCI-Ly19 pEC50 equal to < 4.70

Record CCN1CCN(Cc2ccc(NC(=O)c3ccc(C)c(Oc4cc(NC5CNC5)ncn4)c3)cc2C(F)(F)F)CC1 has OCI-Ly19 pEC50 equal to < 4.70
